Would you kindly list glutamate uptake change for each of these molecules?
test: enhancers of glutamate uptake in motor neurons, MN-1 cell line (AID 1612); details: MN-1 motor neuron cells, stronger effect = higher value;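 note: tested at 1 µM final; 0% = mean of DMSO vehicle wells on each plate; positive means more glutamate uptake than control and negative means less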
One number for each entry, in %.

# input Using the record for C[C@]12CCC3c4ccc(OS(=O)(=O)O)cc4CCC3C1CC[C@H]2O (some centres not stated) , report its glutamate uptake change.
# output -12.2

# input Now this one: CC(C)=CCc1c2c(c3occ(-c4ccc(O)c(O)c4)c(=O)c3c1O)C=CC(C)(C)O2
# output 0.58

# input Follow-up item: CC(=O)N[C@@H]1[C@@H](O)[C@H](O)[C@@H](CO)O[C@H]1O
# output -1.05

# input Also CC(C)Cn1c(=O)n(C)c(=O)c2[nH]cnc21 , if possible.
# output 11.7

# input Okay, and O=C1CN(/N=C/c2ccc([N+](=O)[O-])o2)C(=O)N1 ?
# output 23.4

# input Record: COc1c2occc2cc2ccc(=O)oc12
# output -3.48

# input Can you check Nc1ncnc2c1ncn2[C@@H]1O[C@H](CO)[C@@H](O)[C@@H]1O next?
# output 13.7

# input Can you check O=c1c(O)c(-c2ccc(O)cc2O)oc2cc(O)cc(O)c12 next?
# output -11.3

# input Another: NC1=NCCN1CC(=O)O
# output 12.9

# input Please do the same for NCCc1cnc[nH]1 as well.
# output -0.34

# batch size: 2; output glutamate uptake change per entry
1. CSCCC(NC=O)C(=O)NC(C)C(=O)O (configuration not stated)
2. COc1cc(Cc2cnc(N)nc2N)cc(OC)c1OC

# output
9.47
-5.77

---

experiment: SU-DIPG-XXV glioma cell viability, MIPE5.0 library, qHTS (AID 1347068);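 for IC50: cells exposed to compound for 48 hours before viability readout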
Records with an inconclusive call do not appear. Calls of active or inactive are those of the source. No cut-off is given here; in the data, nearly all actives have IC50 up to about 30 µM.
Pick from TRUE = active, FALSE = inactive when you respond.

A selection of reference data follows.
# input How was CN[C@H](CC(C)C)C(=O)N[C@H]1C(=O)N[C@@H](CC(N)=O)C(=O)N[C@H]2C(=O)N[C@H]3C(=O)N[C@H](C(=O)N[C@H](C(=O)O)c4cc(O)cc(O)c4-c4cc3ccc4O)[C@H](O)c3ccc(c(Cl)c3)Oc3cc2cc(c3O[C@@H]2O[C@H](CO)[C@@H](O)[C@H](O)[C@H]2O[C@H]2C[C@](C)(N)[C@H](O)[C@H](C)O2)Oc2ccc(cc2Cl)[C@H]1O classified in this test?
# output FALSE

# input Same for O=C(O)CCn1c2c(c3ccccc31)C[C@H](NS(=O)(=O)c1ccc(F)cc1)CC2
# output FALSE

More entries:
# input Per the assay record, what outcome was assigned to CC1(CN2CCC(n3c(=O)[nH]c4ccccc43)CC2)OCc2ccccc2-n2cccc21 (configuration not stated) ?
# output FALSE

# input Then what about the molecule Nc1ncnc2c1ncn2[C@@H]1O[C@H](CO)[C@@H](O)[C@@H]1O ?
# output FALSE

# input Would you mind doing O=c1c(O)c(-c2ccc(O)cc2O)oc2cc(O)cc(O)c12 as well?
# output FALSE

# input Entry O=c1cc(O)c(Cl)c[nH]1 please
# output FALSE

# input Now the molecule C=C[C@H]1CN2CC[C@H]1C[C@H]2[C@H](O)c1ccnc2ccc(OC)cc12
# output FALSE

# input Continue with CC(C)(O)CC[C@@H](O)[C@](C)(O)[C@H]1CC[C@@]2(O)C3=CC(=O)[C@@H]4C[C@@H](O)[C@@H](O)C[C@]4(C)[C@H]3CC[C@]12C
# output FALSE

# input Can you handle CCc1ccc(OCc2ccccc2C(=O)Nc2ccc3nc(C)cc(N)c3c2)cc1 next?
# output TRUE

# input Same for Nc1nc(Cl)nc2c1ncn2[C@@H]1O[C@H](CO)[C@@H](O)[C@@H]1F
# output FALSE

# input Now consider NCCc1cnc[nH]1 and answer again.
# output FALSE

# input Also CCOCC(O)COc1ccc(NC(=O)CC[S+](C)C)cc1 (configuration not stated) ?
# output FALSE

# input Queued: O=C(CCc1ccc(O)cc1)c1c(O)cc(O)cc1O[C@@H]1O[C@H](CO)[C@@H](O)[C@H](O)[C@H]1O
# output FALSE

---

tested on: F380Y/beta4; experiment: modulators of BK channel variants, profiling panel, selectivity assay, cell-based, U2OS BacMam, thallium flux, beta subunits (AID 1259406); conditions: at 30 µM;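 note: initial slope of Thallos dye fluorescence rise after thallium is added; log ratio against the mean of 0.3% DMSO vehicle wells on the same plate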
Activity calls are given as the source filed them.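 How the source made its calls: active means thallium flux through the channel raised or lowered by more than 3 SD from vehicle-only wells, actives on both sides; inactive means the rest.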
Property measured: log fold change Tl+ flux

# input I am curious: what log fold change Tl+ flux value has been reported for CS(=O)(=O)c1ccc(C2=C(c3ccccc3)C(=O)OC2)cc1 ?
# output -0.000569 (inactive)

# input Check CC(=O)OCC(=O)[C@@]1(O)CC[C@H]2[C@@H]3C[C@H](C)C4=CC(=O)C=C[C@]4(C)[C@H]3[C@@H](O)C[C@@]21C too.
# output 0.0393 (inactive)

# input How about this molecule: C[C@H]1COc2c(N3CCN(C)CC3)c(F)cc3c(=O)c(C(=O)O)cn1c23
# output -0.0339 (inactive)

Parameter requested: log fold change Tl+ flux. Apply to each item below.
1. COc1ccc(-c2oc3c(CC=C(C)C)c(O[C@@H]4O[C@H](CO)[C@@H](O)[C@H](O)[C@H]4O)cc(O)c3c(=O)c2O[C@@H]2O[C@@H](C)[C@H](O)[C@@H](O)[C@H]2O)cc1
2. CCc1ccc(CCOc2ccc(CC3SC(=O)NC3=O)cc2)nc1 (stereo not given)

# output
["-0.0291 (inactive)", "0.017 (inactive)"]

---

assay: sensitizers of A549 cells to miR-34 induction, primary screen, imaging, A549 dox-inducible miR-34, nuclei and caspase counts (AID 1347080); conditions: A549 miR-34 inducible, Hoechst nuclei count, 48 h; stronger effect = lower value; cell number ratio, induced over uninduced
Binary label based on fold change with cut-off 0.9: below gives true, not below gives false.

# input Field: below-cutoff. Rule: recorded fold change strictly less than 0.9. Subject: COC(=O)[C@H]1[C@H]2C[C@H]3c4[nH]c5ccccc5c4CCN3C[C@@H]2CC[C@@H]1O
# output true

# input Then what about the compound Cn1c(=O)c2[nH]c(C3CCCC3)nc2n(C)c1=O ?
# output false

# input What do you get for COP(=O)(OC)OC(c1ccc(Cl)cc1)P(=O)(OC)OC (stereo unspecified) ?
# output false

# input Same question for CCCCC[C@@H](O)[C@H]1C(=O)O[C@H](C)[C@@H](O)/C=C/C=C/C=C/C=C/C=C(\C)[C@@H](O)C[C@H](O)C[C@H](O)C[C@H](O)C[C@H](O)C[C@H](O)C[C@@H]1O please.
# output false

# input Another compound to look at: CC(C)(C)C(=O)Oc1ccc(S(=O)(=O)Nc2ccccc2C(=O)NCC(=O)O)cc1
# output false

# input One more compound: COC(=O)C(c1ccccc1Cl)N1CCc2sccc2C1 (stereo unspecified)
# output false

# input Entry NCC[C@H](O)C(=O)N[C@@H]1C[C@H](N)[C@@H](O[C@H]2O[C@H](CN)[C@@H](O)[C@H](O)[C@H]2O)[C@H](O)[C@H]1O[C@H]1O[C@H](CO)[C@@H](O)[C@H](N)[C@H]1O please
# output true

# input Moving on to COc1cc2c(cc1OC)[C@@H]1CC(=O)[C@@H](CC(C)C)CN1CC2
# output false

Next:
# input A record lists O=C(Oc1cccc2cccnc12)c1ccccc1 . Is its fold change below 0.9?
# output true

# input Now this one: CCCCCCCCCCCCCCCC(=O)OC/C=C(C)/C=C/C=C(C)/C=C/C1=C(C)CCCC1(C)C
# output true

# input Repeat for the following compound: CCCCCCCCCCCCCCCC(=O)O
# output false

# input And then O=c1[nH]c(=O)n([C@H]2C[C@H](O)[C@@H](CO)O2)cc1Br , what is it?
# output true

# input Repeat with CC(O)CN(CCN(CC(C)O)CC(C)O)CC(C)O (stereo unspecified)
# output false

---

For each of the compounds below, state its GLP1 secretion stimulation.
assay: glucagon-like peptide 1 release enhancers, primary assay, NCI-H716 cell line, NPC library (AID 1117341); details: NCI-H716 cells, at 10 µM, stronger effect = higher value
Give bare numbers, in %.

Before answering, review these 5 worked examples.
# input Reported GLP1 secretion stimulation for CCOc1nc2cccc(C(=O)O)c2n1Cc1ccc(-c2ccccc2-c2nn[nH]n2)cc1 : what is it?
# output -1.6

# input Item: N[C@@H](Cc1c[nH]c2ccc(O)cc12)C(=O)O
# output 3.1

# input Then this compound: COc1nc(N)nc2c1ncn2[C@@H]1O[C@H](CO)[C@@H](O)[C@@H]1O
# output 0.9

# input Please do the same for NS(=O)(=O)c1cc2c(cc1Cl)NC(CC1CCCC1)NS2(=O)=O (stereo not drawn) as well.
# output 3.4

# input Input CC1(C)[C@H](C(=O)O)N2C(=O)C[C@H]2S1(=O)=O
# output -0.3

Respectfully, I request GLP1 secretion stimulation for each entry included below.
1. O=C1NC(=O)[C@@]2(CCOc3ccc(F)cc32)N1
2. CN(N=O)C(=O)N[C@@H]1[C@@H](O)[C@H](O)[C@@H](CO)O[C@@H]1O

# output
1: 0; 2: 0.8

Attribution: PubChem BioAssay
